Test system: TBK1;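 also: KINOMEscan kinase panel screen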
Conditions: concentration: 1 μM,replicates: in singlicate; n = 1
Below, each entry is listed alongside its reported %Inh.

{"columns": ["Compound", "Tested on", "%Inh (%)"],
 "data": [
  ["CN(c1ccccc1CNc1nc(Nc2ccc3c(c2)CC(=O)N3)ncc1C(F)(F)F)S(C)(=O)=O", "TBK1", 48],
  ["Cn1ccc2ncnc(Oc3ccc(NC(=O)Nc4ccnc(C(F)(F)F)c4)c(Cl)c3)c21", "TBK1", 0],
  ["CC(=O)Nc1nc2cnc(Nc3cc(NC(=O)c4cccc(CC(C)(C)C#N)c4)ccc3C)nc2s1", "TBK1", 12],
  ["CS(=O)(=O)c1cccc(CNc2nc(Nc3ccc4c(c3)[C@@H]3C[C@@H]4CNC3=O)ncc2C(F)(F)F)c1", "TBK1", 98.6],
  ["CCn1c(-c2nonc2N)nc2cncc(Br)c21", "TBK1", 16],
  ["O=C(Nc1cccc(Oc2ccc3nccn3n2)c1)Nc1cccc(C(F)(F)F)c1", "TBK1", 8],
  ["Cc1ccc(C(=O)Nc2ccc(Oc3ccc4nc(NC(=O)C5CC5)cn4c3)c(F)c2)c(=O)n1-c1ccccc1", "TBK1", 44],
  ["CC(C)S(=O)(=O)N1CCN(Cc2ccc3c(c2)nc(NC(=O)c2ccsc2)n3C[C@H](O)c2ccccc2)CC1", "TBK1", 50],
  ["CCOC(=O)N1CCC(n2cnc(-c3ccc(F)cc3)c2-c2ccnc(N)n2)CC1", "TBK1", 16],
  ["O=C(NOCC1CC1)c1cc(Br)c(F)c(F)c1Nc1ccc(I)cc1Cl", "TBK1", 5],
  ["COC(=O)c1cccc(NC(=O)NC2CCN(c3ccnc(NCc4ccc(F)cc4)n3)CC2)c1", "TBK1", 0],
  ["CC(C(=O)NC1CCN(c2ccnc(Nc3ccc(F)cc3)n2)C1)c1ccc(Cl)cc1 (stereo not shown)", "TBK1", 0],
  ["CCCC(=O)Nc1n[nH]c2ncccc12", "TBK1", 0],
  ["COC(=O)Nc1nc2cc(Oc3ccc(NC(=O)Nc4cc(C(F)(F)F)ccc4Cl)cc3)ccc2[nH]1.Cl", "TBK1", 0],
  ["COc1cccc(OC)c1C(=O)Nc1cccc(-c2nn3ccccc3c2-c2ccnc(Nc3cccc(F)c3)n2)c1", "TBK1", 61],
  ["Cn1ccc2ncnc(Oc3ccc(NC(=O)Nc4cncc(C(F)(F)F)c4)c(Cl)c3)c21", "TBK1", 0],
  ["O=C(Nc1ccccc1)c1cccc(Oc2ccc3nccn3n2)c1", "TBK1", 0],
  ["O=c1[nH]cc(-c2ccc(O)cc2)c2sc(-c3ccncc3)cc12", "TBK1", 19],
  ["Cn1cc(-c2cccc3c(N)c(C(N)=O)nnc23)cn1", "TBK1", 31],
  ["Cn1ccc2ncnc(Oc3ccc(NC(=O)Nc4cc(C(C)(C)C)on4)c(Cl)c3)c21", "TBK1", 28],
  ["COc1cc2nccc(Nc3ccc(Oc4ccccc4)cc3)c2cc1OC.Cl", "TBK1", 13],
  ["C[C@@H]1CNc2c(sc3ccc4nc(-c5ccc(O)cc5)ccc4c23)C(=O)N1", "TBK1", 8],
  ["CCNCC(Cc1ccccc1)NC(=O)c1cc(Br)c(-c2ccnc3[nH]ccc23)s1.Cl.Cl (stereo not shown)", "TBK1", 26],
  ["NC(=O)c1ccc(-c2cc3ncnc(SCC(=O)O)c3s2)cc1", "TBK1", 8],
  ["COc1cc2c(Nc3ccc(NC(=O)c4ccccc4)cc3)ncnc2cc1OCCCN1CCOCC1", "TBK1", 0],
  ["Cc1cccc2c(-c3ccncc3)c(-c3ccc(F)cc3)nn12.Cl", "TBK1", 16],
  ["Nc1nccc(-c2ccc3c(N)n[nH]c3c2)n1", "TBK1", 20],
  ["FC(F)(F)c1cc(Br)cc(Nc2nccc(-c3cnn4ncccc34)n2)c1", "TBK1", 17]
]}
